Recorded measurements of % of binding in the absence of HGF, one per entry
- subject.of.test: T1, cMet-Fc fusion protein (extracellular domain of the cMet receptor expressed as an Fc-fusion protein) (human, UniProt P08581 25-932)
- T1 construct: extracellular domain; also called soluble cMet-Fc-fusion protein; soluble cMet receptor; not shown: Fc part
- protocol.text: phage ELISA on cMet-Fc, competitor HGF 100 ng/mL
measure.name: % of binding in the absence of HGF (%)

• AGTVYCSWESSECWWVGT [352-E04 peptide-displaying phage (SEQ ID NO: 019)] = 88
• GSLIFCPYGECMMYAP [470-E11 peptide-displaying phage (SEQ ID NO: 005)] = 55
• GSSHCNQMITPWQNCGMRAP [446-E12 peptide-displaying phage (SEQ ID NO: 374)] = 73
• AQAEWVITSEEFYWKMADFGPP [75-B12 peptide-displaying phage (SEQ ID NO: 478)] = 95
